study.system: 5-hydroxytryptamine receptor 1A (Homo sapiens) (UniProt P08908)
Sequence (whole entry): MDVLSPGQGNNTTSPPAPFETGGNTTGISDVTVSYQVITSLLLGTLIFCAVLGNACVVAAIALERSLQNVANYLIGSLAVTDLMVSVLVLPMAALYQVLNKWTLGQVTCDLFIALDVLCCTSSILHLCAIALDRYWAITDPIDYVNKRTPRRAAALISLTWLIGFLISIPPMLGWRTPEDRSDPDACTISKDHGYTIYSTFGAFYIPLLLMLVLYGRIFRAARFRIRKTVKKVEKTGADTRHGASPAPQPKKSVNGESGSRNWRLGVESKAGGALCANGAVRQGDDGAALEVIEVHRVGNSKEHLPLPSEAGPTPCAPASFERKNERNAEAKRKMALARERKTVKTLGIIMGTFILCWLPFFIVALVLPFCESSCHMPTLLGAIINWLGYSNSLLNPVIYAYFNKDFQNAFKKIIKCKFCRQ
protocol: Displacement of [3H]8-OH-DPAT from recombinant human 5-HT1A receptor expressed in HEK293 cell membranes at 10 uM after 60 mins by TopCount scintillation counting method relative to control
test.readout: inhibition (%)

[
  {
    "sample.smiles": "Fc1ccc2[nH]cc(CCN3CCN(c4ccccc4-c4ccccc4)CC3)c2c1",
    "limit.sign": ">",
    "result": 90
  },
  {
    "sample.smiles": "N#Cc1ccc2[nH]cc(CCN3CCN(c4ccccc4-c4ccccc4)CC3)c2c1",
    "limit.sign": "=",
    "result": 97.6
  },
  {
    "sample.smiles": "Fc1cccc(-c2cc(F)ccc2N2CCN(CCCCc3c[nH]c4ccc(F)cc34)CC2)c1",
    "limit.sign": "=",
    "result": 96
  },
  {
    "sample.smiles": "Fc1cccc(-c2c(F)cccc2N2CCN(CCCc3c[nH]c4ccc(F)cc34)CC2)c1",
    "limit.sign": ">",
    "result": 90
  },
  {
    "sample.smiles": "c1ccc(-c2cccc(N3CCN(CCc4coc5ccccc45)CC3)c2)cc1",
    "limit.sign": "=",
    "result": 97.5
  }
]

###

protocol: Plasma concentration in Sprague-Dawley rat at 0.5 mg/kg, iv administered as single dose measured after 8 hrs by LC-MS/MS analysis
Type: ADME, organism-based
test.readout: concentration at 8 h (ng/mL)

[
  {
    "sample.smiles": "Fc1ccc(N2CCN(CCCc3c[nH]c4ccc(F)cc34)CC2)c(-c2ccccc2)c1",
    "test.readout": "concentration at 8 h",
    "result": 8.84
  }
]

###

protocol: Plasma concentration in Sprague-Dawley rat at 0.5 mg/kg, iv administered as single dose measured after 15 mins by LC-MS/MS analysis
Assay type: ADME, organism-based
test.readout: concentration at […] (ng/mL)

[
  {
    "sample.smiles": "Fc1ccc(N2CCN(CCCc3c[nH]c4ccc(F)cc34)CC2)c(-c2ccccc2)c1",
    "result": 149
  }
]

###

protocol: Apparent terminal half life in Sprague-Dawley rat at 2 mg/kg, po administered as single dose by LC-MS/MS analysis
Type: ADME, organism-based
conditions: in vivo, read-out: betat1/2(app) (converted)

[
  {
    "sample.smiles": "Fc1ccc(N2CCN(CCCc3c[nH]c4ccc(F)cc34)CC2)c(-c2ccccc2)c1",
    "output.unit": "h",
    "half-life": 6.1
  }
]
